protocol.description: Drug level in Han Wistar rat blood at 10 umol/kg, iv dosed up to 6 hrs infusions by LC-MS/MS analysis
Type: ADME, organism-based
assay.setup: whole blood, read-out: Drug uptake
assay.readout: concentration at 6 h (nM)
Give bare numbers, in nM.

Tell me the measured concentration at 6 h of "COc1cc([C@@H](CC(=O)O)c2ccc(C)c(CN3C[C@@H](C)Oc4ccccc4S3(=O)=O)c2)cc2nnn(C)c12" , please.
407

---

protocol.description: Drug level in Han Wistar rat blood at 35 umol/kg, iv dosed up to 6 hrs infusions by LC-MS/MS analysis
Assay type: ADME, organism-based
assay.setup: whole blood, read-out: Drug uptake
assay.readout: concentration at 6 h (nM)
Numbers only, in nM.

Tell me the measured concentration at 6 h of "COc1cc([C@@H](CC(=O)O)c2ccc(C)c(CN3C[C@@H](C)Oc4ccccc4S3(=O)=O)c2)cc2nnn(C)c12" , please.
946

---

protocol.description: Drug level in Han Wistar rat blood at 50 umol/kg, iv dosed up to 6 hrs infusions by LC-MS/MS analysis
Format: ADME, organism-based
assay.setup: whole blood, read-out: Drug uptake
assay.readout: concentration at 6 h
Write the figure, then the unit, nothing else.

Tell me the measured concentration at 6 h of "COc1cc([C@@H](CC(=O)O)c2ccc(C)c(CN3C[C@@H](C)Oc4ccccc4S3(=O)=O)c2)cc2nnn(C)c12" , please.
1440 nM

---

protocol.description: Systemic oral bioavailability in Han Wistar rat at 2 mg/kg after 24 hrs by LC-MS/MS analysis
Assay type: ADME, organism-based
assay.setup: in vivo
assay.readout: bioavailability (%)
Give bare numbers, in %.

Tell me the measured bioavailability of "COc1cc([C@@H](CC(=O)O)c2ccc(C)c(CN3C[C@@H](C)Oc4ccccc4S3(=O)=O)c2)cc2nnn(C)c12" , please.
7
